B1: FAM46C (parent)
chain: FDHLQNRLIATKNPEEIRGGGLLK

Variants of: B1
assay-notes: protein stability index of a GFP-peptide fusion (GPS, HEK-293T) (PSI 1-6); higher = more stable;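 also: lentivirally expressed fusions sorted by FACS into six bins by GFP to DsRed ratio, PSI derived from sequencing read proportions per bin multiplied by bin number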
experimental-context: c terminus: a fixed tail appended
Use 4 as the dividing line for protein stability index, with the line itself on the Satisfied side and lower values as Not satisfied.

- variant-string: "L4I"
  qualitative-label: "Not satisfied"
- variant-string: "T11Q"
  qualitative-label: "Satisfied"
- variant-string: "G20Q"
  qualitative-label: "Not satisfied"
- variant-string: "L23E"
  qualitative-label: "Satisfied"
- variant-string: "D2L"
  qualitative-label: "Not satisfied"
- variant-string: "I17E"
  qualitative-label: "Satisfied"
- variant-string: "G19C"
  qualitative-label: "Not satisfied"
- variant-string: "H3A"
  qualitative-label: "Not satisfied"
- variant-string: "T11Y"
  qualitative-label: "Not satisfied"
- variant-string: "H3E"
  qualitative-label: "Satisfied"
- variant-string: "G19D"
  qualitative-label: "Satisfied"
- variant-string: "L4R"
  qualitative-label: "Satisfied"
- variant-string: "G19A"
  qualitative-label: "Not satisfied"
- variant-string: "R7I"
  qualitative-label: "Not satisfied"
